Give EC50 for every item shown.
- targetUnderTest: human NPRA (Homo sapiens, UniProt P16066)
- Construct: Full-Length cDNA Cloning and Generation of Cell Lines Overexpressing Natriuretic Peptide Receptors (NPRs); expressed in transfected cells; host or cells: Jump-in T-Rex HEK293 cells, pJTI R4 CMV-TO MCS pA vector, tetracycline induction
- Sequence (P16066 33-1061): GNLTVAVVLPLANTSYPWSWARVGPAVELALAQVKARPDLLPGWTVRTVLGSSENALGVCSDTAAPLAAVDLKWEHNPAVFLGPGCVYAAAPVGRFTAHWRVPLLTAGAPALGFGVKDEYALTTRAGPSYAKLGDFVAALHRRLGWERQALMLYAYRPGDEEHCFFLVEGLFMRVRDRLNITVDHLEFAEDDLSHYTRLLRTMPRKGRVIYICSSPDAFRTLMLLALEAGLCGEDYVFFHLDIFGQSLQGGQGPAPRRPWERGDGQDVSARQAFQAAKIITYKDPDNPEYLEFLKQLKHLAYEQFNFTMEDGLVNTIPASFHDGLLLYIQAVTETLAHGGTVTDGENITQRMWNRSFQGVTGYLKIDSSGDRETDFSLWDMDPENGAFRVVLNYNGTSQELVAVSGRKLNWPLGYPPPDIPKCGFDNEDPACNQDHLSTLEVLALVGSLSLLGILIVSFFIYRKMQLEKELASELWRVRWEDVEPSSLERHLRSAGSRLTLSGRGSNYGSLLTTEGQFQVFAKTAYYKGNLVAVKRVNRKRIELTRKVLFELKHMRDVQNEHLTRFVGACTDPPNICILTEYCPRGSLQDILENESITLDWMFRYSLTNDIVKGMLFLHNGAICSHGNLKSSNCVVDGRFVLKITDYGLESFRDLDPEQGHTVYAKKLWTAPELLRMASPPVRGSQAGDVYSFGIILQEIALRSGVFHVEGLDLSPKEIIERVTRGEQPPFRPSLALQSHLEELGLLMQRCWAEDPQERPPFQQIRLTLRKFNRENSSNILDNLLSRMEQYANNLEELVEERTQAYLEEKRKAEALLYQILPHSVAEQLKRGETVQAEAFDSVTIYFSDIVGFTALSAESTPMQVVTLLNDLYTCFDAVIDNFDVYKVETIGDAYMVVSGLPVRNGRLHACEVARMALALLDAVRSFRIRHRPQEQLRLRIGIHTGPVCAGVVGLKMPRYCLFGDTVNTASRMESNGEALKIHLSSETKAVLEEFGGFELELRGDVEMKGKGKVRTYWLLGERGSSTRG
- experimentSummary: Human NPRA cGMP activity assay (HTRF) in HEK293 cells overexpressing NPRA
- Type: cell-based
- assayContext: cGMP Assay (EC50, pM) w/Casein hNPRA, assay buffer with 0.1% casein
Numbered stars: 1 amine (or outer) side, 2 acyl side, 3 side chain; on linkers, the order of the positions; unused ones are H or OH. Bridge positions count the residues as written; N and C are the ends. Square brackets hold non-standard residues; d marks the D form. * marks the point of attachment. PEG24 = NCCOCCOCCOCCOCCOCCOCCOCCOCCOCCOCCOCCOCCOCCOCCOCCOCCOCCOCCOCCOCCOCCOCCOCCOCCC(=O)O; C20 diacid = O=C(O)CCCCCCCCCCCCCCCCCCC(=O)*; γGlu = O=C(O)[C@H](CCC(=O)[*:2])N[*:1]; 4Pal = N[C@@H](Cc1ccncc1)C(=O)O; CH2 = C([*:1])[*:2]; βAla = NCCC(=O)O
Please respond with the number in pM and leave the unit unwritten.

// recorded EC50 for {C20 diacid-γGlu}-EKEKEKG[PEG24]EK[βAla]RSSCFGGKIDRIGHYSGLGCPSFRHGSPSSGAPPPS-NH2 (linker 15-31 via CH2) [Example 6] : 1530

Recorded result, {C20 diacid-γGlu}-EKEKEKGEK[βAla]RSSCFGGRIDRIGHYSGLGCPSLRHGGPSSGAPPPS-NH2 (linker 14-30 via CH2) [Example 63] , EC50: 1090

EC50 for {C20 diacid-γGlu}-EKEKEKG[PEG24]S[4Pal]RRSSCFGGRIDRIGHQSGLGCPSFRHGGPSSGAPPPS-NH2 (linker 15-31 via CH2) [Example 61] is 912

Sample {C20 diacid-γGlu}-EKEKEKGEKGRSSCFGGRIDRIGHYSGLGCPSLRHGGPSSGAPPPS-NH2 (disulfide 14-30) [Example 51] ; EC50 observed: 361

====

- targetUnderTest: rat NPRA (Rattus norvegicus)
- Construct: Full-Length cDNA Cloning and Generation of Cell Lines Overexpressing Natriuretic Peptide Receptors (NPRs); expressed in transfected cells; host or cells: Jump-in T-Rex HEK293 cells, pJTI R4 CMV-TO MCS pA vector, tetracycline induction
- Sequence (P18910 29-1057): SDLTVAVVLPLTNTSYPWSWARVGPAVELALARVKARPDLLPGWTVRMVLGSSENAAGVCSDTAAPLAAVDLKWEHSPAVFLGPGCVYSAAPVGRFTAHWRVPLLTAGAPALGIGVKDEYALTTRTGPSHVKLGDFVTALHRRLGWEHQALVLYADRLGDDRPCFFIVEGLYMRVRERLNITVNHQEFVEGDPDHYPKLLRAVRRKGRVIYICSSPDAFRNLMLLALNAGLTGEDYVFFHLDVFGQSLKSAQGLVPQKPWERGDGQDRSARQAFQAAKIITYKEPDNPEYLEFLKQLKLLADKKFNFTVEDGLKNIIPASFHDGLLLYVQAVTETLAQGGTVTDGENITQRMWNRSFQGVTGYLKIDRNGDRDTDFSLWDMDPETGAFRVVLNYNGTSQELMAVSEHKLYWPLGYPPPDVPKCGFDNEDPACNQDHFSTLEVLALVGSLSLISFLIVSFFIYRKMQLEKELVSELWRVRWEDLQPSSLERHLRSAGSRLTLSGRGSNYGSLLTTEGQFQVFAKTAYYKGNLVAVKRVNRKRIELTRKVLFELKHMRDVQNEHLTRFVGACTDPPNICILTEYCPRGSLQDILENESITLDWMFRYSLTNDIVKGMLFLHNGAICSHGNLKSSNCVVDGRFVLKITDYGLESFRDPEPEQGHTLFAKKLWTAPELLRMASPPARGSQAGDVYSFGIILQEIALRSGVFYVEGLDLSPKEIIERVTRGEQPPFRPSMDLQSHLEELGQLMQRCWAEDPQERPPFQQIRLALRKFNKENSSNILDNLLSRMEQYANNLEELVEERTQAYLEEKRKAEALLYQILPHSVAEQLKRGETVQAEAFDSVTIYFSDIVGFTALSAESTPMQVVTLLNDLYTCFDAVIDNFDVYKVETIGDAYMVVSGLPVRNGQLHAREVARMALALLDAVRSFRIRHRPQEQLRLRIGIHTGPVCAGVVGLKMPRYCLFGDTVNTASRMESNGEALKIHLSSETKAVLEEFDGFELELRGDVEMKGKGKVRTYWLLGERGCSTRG
- experimentSummary: Rat NPRA cGMP activity assay (HTRF) in HEK293 cells overexpressing NPRA
- Assay type: cell-based
- assayContext: cGMP Assay (EC50, pM) w/BSA rNPRA, assay buffer with 0.1% BSA
- Description: All sequences were verified by full-length sequencing performed by ACGT DNA Sequencing Services (Wheeling, IL). […] Test polypeptides were added starting at 10 μM concentration and at 10-fold decreasing concentrations to obtain 8-point concentration-response curves (i.e., 10 μM to 1 pM). The quantity of cGMP generated was detected using HTRF® technology and normalized to maximum amount produced by 100 nM amidated rat ANP and the minimum amount produced by assay buffer. […]
Numbered stars: 1 amine (or outer) side, 2 acyl side, 3 side chain; on linkers, the order of the positions; unused ones are H or OH. Bridge positions count the residues as written; N and C are the ends. Square brackets hold non-standard residues; d marks the D form. * marks the point of attachment. PEG24 = NCCOCCOCCOCCOCCOCCOCCOCCOCCOCCOCCOCCOCCOCCOCCOCCOCCOCCOCCOCCOCCOCCOCCOCCOCCC(=O)O; C20 diacid = O=C(O)CCCCCCCCCCCCCCCCCCC(=O)*; γGlu = O=C(O)[C@H](CCC(=O)[*:2])N[*:1]; 4Pal = N[C@@H](Cc1ccncc1)C(=O)O; CH2 = C([*:1])[*:2]
endpoint: EC50 (pM)
Answer with a number only, understood to be in pM.

get_value(item= {C20 diacid-γGlu}-EKEKEKG[PEG24]S[4Pal]RRSSCFGGRIDRIGHQSGLGCPSFRHGGPSSGAPPPS-NH2 (linker 15-31 via CH2) [Example 61] , readout=EC50) returns 463000
